assay: cytotoxicity in Drosophila DL1 cells; format: cell-based; conditions: Drosophila, DL1 cells (embryonic macrophage-derived), DL1 cells, 0.04 µM, replicate 2, relative to DMSO 1%; read-out: % viability, viability 2
The reader will find reported viability at 0.04 µM values listed item by item below.
endpointLabel: viability at 0.04 µM (%)

compound: C=C1CC[C@H]2[C@]3(C)C[C@H](C=C(C)C)O[C@H]3CC[C@]2(C)[C@@H]1Cc1c(OC)oc(CO)c(C)c1=O
measValue: 92.1
//
compound: C=C1CCC2C(C)(CCC=C(C)C)C(O)CCC2(C)C1Cc1c(O)c(C)c(C)oc1=O (centres unmarked)
measValue: 202
//
compound: C=C1CC[C@@H]2[C@](C)(CC[C@H]3O[C@H](C=C(C)C)C[C@@]23C)[C@@H]1Cc1c(OC)oc(CO)c(C)c1=O
measValue: 209
//
compound: C=C1CCC2C(C)(CC(=O)C=C(C)C)C(O)CCC2(C)C1Cc1c(OC)oc(C)c(C)c1=O (centres unmarked)
measValue: 136
//
compound: C=C1CCC2C(C)(CCC=C(C)C)C(=O)CCC2(C)C1Cc1c(O)c(C)c(C)oc1=O (centres unmarked)
measValue: 219
//
compound: C=C1CCC2C3(C)CC(C=C(C)C)OC3CCC2(C)C1Cc1c(OC)oc(C)c(C)c1=O (centres unmarked)
measValue: 110
//
compound: C=C1CCC2C(C)(CC(=O)C=C(C)C)C(O)CCC2(C)C1Cc1c(OC)oc(CO)c(C)c1=O (centres unmarked)
measValue: 93.4
//
compound: C=C1CC[C@H]2[C@]3(C)C[C@@H](C=C(C)C)O[C@H]3CC[C@]2(C)[C@@H]1Cc1c(OC)oc(CO)c(C)c1=O
measValue: 207
//
compound: C=C1CC[C@@H]2[C@](C)(CC[C@H]3O[C@H](C=C(C)C)C[C@@]23C)[C@@H]1Cc1c(O)c(C)c(C)oc1=O
measValue: 85.6
//
compound: C=C1CCC2C(C)(CCC=C(C)C)C(O)CCC2(C)C1Cc1c(OC)oc(CO)c(C)c1=O (centres unmarked)
measValue: 104
//
compound: C=C1CCC2C(C)(CCC=C(C)C)C(O)CCC2(C)C1Cc1c(OC)oc(C)c(C(=O)OC)c1=O (centres unmarked)
measValue: 115

---

Th-T fluorescence of Aβ42 with compound, mean of three wells (Fig. 7a source data) overview
molecular target: Aβ42 (Homo sapiens, UniProt P05067); assay: Th-T (thioflavin-T) assay of Aβ42 aggregation; type: biochemical; conditions: concentration 50, unit not given; time-course reading M141
Sequence (P05067 672-713): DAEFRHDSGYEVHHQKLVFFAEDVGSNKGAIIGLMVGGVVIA
endpointLabel: Th-T fluorescence of Aβ42 with compound, mean of three wells (Fig. 7a source data)

molecule: C=C1CCC2C(C)(CCC=C(C)C)C(O)CCC2(C)C1Cc1c(OC)oc(C)c(C(=O)OC)c1=O (centres unmarked)
systemName: Aβ42 (Homo sapiens, UniProt P05067)
measValue: 0.7413
//
molecule: C=C1CC[C@@H]2[C@](C)(CC[C@H]3O[C@H](C=C(C)C)C[C@@]23C)[C@@H]1Cc1c(OC)oc(CO)c(C)c1=O
systemName: Aβ42 (Homo sapiens, UniProt P05067)
measValue: 2.123
//
molecule: C=C1CCC2C(C)(CCC=C(C)C)C(O)CCC2(C)C1Cc1c(OC)oc(CO)c(C(=O)OC)c1=O (centres unmarked)
systemName: Aβ42 (Homo sapiens, UniProt P05067)
measValue: 0.4755
//
molecule: C=C1CCC2C(C)(CCC=C(C)C)C(O)CCC2(C)C1Cc1c(OC)oc(CO)c(C)c1=O (centres unmarked)
systemName: Aβ42 (Homo sapiens, UniProt P05067)
measValue: 1.647
//
molecule: C=C1CC[C@@H]2[C@](C)(CC[C@H]3O[C@H](C=C(C)C)C[C@@]23C)[C@@H]1Cc1c(OC)oc(CO)c(C(=O)OC)c1=O
systemName: Aβ42 (Homo sapiens, UniProt P05067)
measValue: 0.504

---

Th-T fluorescence, mean of three wells reference
molecular target: Aβ42 (Homo sapiens, UniProt P05067); assay: Th-T (thioflavin-T) assay of Aβ42 aggregation; assay type: biochemical; settings: compound at 10; reading M49 of time course

compound: C=C1CC[C@@H]2[C@](C)(CC[C@H]3O[C@H](C=C(C)C)C[C@@]23C)[C@@H]1Cc1c(OC)oc(CO)c(C(=O)OC)c1=O
Th-T fluorescence, mean of three wells: 0.2662

compound: C=C1CCC2C(C)(CCC=C(C)C)C(O)CCC2(C)C1Cc1c(OC)oc(CO)c(C)c1=O (centres unmarked)
Th-T fluorescence, mean of three wells: 3.382

compound: C=C1CCC2C(C)(CCC=C(C)C)C(O)CCC2(C)C1Cc1c(OC)oc(C)c(C(=O)OC)c1=O (centres unmarked)
Th-T fluorescence, mean of three wells: 2.512

compound: C=C1CCC2C(C)(CCC=C(C)C)C(O)CCC2(C)C1Cc1c(OC)oc(CO)c(C(=O)OC)c1=O (centres unmarked)
Th-T fluorescence, mean of three wells: 1.496

compound: C=C1CC[C@@H]2[C@](C)(CC[C@H]3O[C@H](C=C(C)C)C[C@@]23C)[C@@H]1Cc1c(OC)oc(CO)c(C)c1=O
Th-T fluorescence, mean of three wells: 3.4597

---

molecular target: Aβ42 (Homo sapiens); experiment: Th-T (thioflavin-T) assay of Aβ42 aggregation; assay type: biochemical; conditions: reading M115; compound at 10 (head suffix _10)
Below is a list of entries, each paired with its recorded Th-T fluorescence, mean of three wells (Fig. 7a) value.
endpointLabel: Th-T fluorescence, mean of three wells (Fig. 7a)

compound: C=C1CCC2C(C)(CCC=C(C)C)C(O)CCC2(C)C1Cc1c(OC)oc(CO)c(C(=O)OC)c1=O (centres unmarked)
systemName: Aβ42 (Homo sapiens)
measValue: 1.549
--
compound: C=C1CC[C@@H]2[C@](C)(CC[C@H]3O[C@H](C=C(C)C)C[C@@]23C)[C@@H]1Cc1c(OC)oc(CO)c(C(=O)OC)c1=O
systemName: Aβ42 (Homo sapiens)
measValue: 1.673
--
compound: C=C1CCC2C(C)(CCC=C(C)C)C(O)CCC2(C)C1Cc1c(OC)oc(C)c(C(=O)OC)c1=O (centres unmarked)
systemName: Aβ42 (Homo sapiens)
measValue: 2.899
--
compound: C=C1CCC2C(C)(CCC=C(C)C)C(O)CCC2(C)C1Cc1c(OC)oc(CO)c(C)c1=O (centres unmarked)
systemName: Aβ42 (Homo sapiens)
measValue: 2.617
--
compound: C=C1CC[C@@H]2[C@](C)(CC[C@H]3O[C@H](C=C(C)C)C[C@@]23C)[C@@H]1Cc1c(OC)oc(CO)c(C)c1=O
systemName: Aβ42 (Homo sapiens)
measValue: 3.222

---

target: Aβ42 (Homo sapiens, UniProt P05067); assay: Th-T (thioflavin-T) assay of Aβ42 aggregation; format: biochemical; details: Aβ42 aggregation time course, reading M118
Label 1.0 when Th-T fluorescence, mean of three wells is strictly below 3; otherwise label 0.0.

molecule: C=C1CCC2C(C)(CCC=C(C)C)C(O)CCC2(C)C1Cc1c(OC)oc(C)c(C(=O)OC)c1=O (stereo not drawn)
systemName: Aβ42 (Homo sapiens, UniProt P05067)
categoryLabel: 1.0
//
molecule: C=C1CC[C@H]2[C@]3(C)C[C@H](C=C(C)C)O[C@H]3CC[C@]2(C)[C@@H]1Cc1c(OC)oc(C)c(C)c1=O
systemName: Aβ42 (Homo sapiens, UniProt P05067)
categoryLabel: 0.0
//
molecule: C=C1CCC2C(C)(CCC=C(C)C)C(O)CCC2(C)C1Cc1c(O)c(C)c(C)oc1=O (stereo not drawn) [Compound 9, higginsianin B]
systemName: Aβ42 (Homo sapiens, UniProt P05067)
categoryLabel: 1.0
//
molecule: C=C1CC[C@H]2[C@]3(C)C[C@@H](C=C(C)C)O[C@H]3CC[C@]2(C)[C@@H]1Cc1c(O)c(C)c(C)oc1=O
systemName: Aβ42 (Homo sapiens, UniProt P05067)
categoryLabel: 1.0
//
molecule: C=C1CC[C@@H]2[C@](C)(CC[C@H]3O[C@H](C=C(C)C)C[C@@]23C)[C@@H]1Cc1c(OC)oc(CO)c(C(=O)OC)c1=O
systemName: Aβ42 (Homo sapiens, UniProt P05067)
categoryLabel: 1.0
//
molecule: C=C1CCC2C(C)(CC(=O)C=C(C)C)C(O)CCC2(C)C1Cc1c(O)c(C)c(C)oc1=O (stereo not drawn)
systemName: Aβ42 (Homo sapiens, UniProt P05067)
categoryLabel: 0.0

---

Fig. 7a Th-T reading, mean of three wells listing for selected compounds.
biological target: Aβ42 (Homo sapiens, UniProt P05067); assay: Th-T (thioflavin-T) assay of Aβ42 aggregation; assay type: biochemical; conditions: column suffix _50; reading M92
endpointLabel: Fig. 7a Th-T reading, mean of three wells

compound: C=C1CCC2C(C)(CCC=C(C)C)C(O)CCC2(C)C1Cc1c(OC)oc(CO)c(C(=O)OC)c1=O (centres unmarked) [Compound 13]
measValue: 0.4706

compound: C=C1CC[C@@H]2[C@](C)(CC[C@H]3O[C@H](C=C(C)C)C[C@@]23C)[C@@H]1Cc1c(OC)oc(CO)c(C(=O)OC)c1=O [Compound 21]
measValue: 0.4386

compound: C=C1CC[C@@H]2[C@](C)(CC[C@H]3O[C@H](C=C(C)C)C[C@@]23C)[C@@H]1Cc1c(OC)oc(CO)c(C)c1=O [Compound 20]
measValue: 2.089

compound: C=C1CCC2C(C)(CCC=C(C)C)C(O)CCC2(C)C1Cc1c(OC)oc(C)c(C(=O)OC)c1=O (centres unmarked) [Compound 14]
measValue: 1.726

compound: C=C1CCC2C(C)(CCC=C(C)C)C(O)CCC2(C)C1Cc1c(OC)oc(CO)c(C)c1=O (centres unmarked) [Compound 12]
measValue: 1.405
